All figures here come from ChEMBL document CHEMBL3739352.

Reported Rm values for a set of molecules
# method: Lipophilicity of the compound at 1 mg/ml by RT-TLC analysis relative to 0% methanol
# Assay type: physicochemical
# study conditions: methanol/water
No unit in the answer, please; the number alone is enough.

Reference set (4 entries):
molecule: CC(=O)OC(C)CNC(=O)/C=C/c1ccccc1 (racemic)
Rm: 2.003
//
molecule: CC(=O)OCC(C)NC(=O)/C=C/c1ccccc1 (racemic)
Rm: 1.88
//
molecule: CC(CO)NC(=O)/C=C/c1ccccc1 (racemic)
Rm: 1.39
//
molecule: CC(O)CNC(=O)/C=C/c1ccccc1 (racemic)
Rm: 1.512

The measured Rm associated with O=C(/C=C/c1ccccc1)NCCCCCO reads 1.983

COC(=O)C(NC(=O)/C=C/c1ccccc1)C(C)C (racemic) yielded Rm of 2.742

The molecule listed as CCC(O)CNC(=O)/C=C/c1ccccc1 (racemic) has a reported Rm of 1.937

Documented Rm of CC(=O)CNC(=O)/C=C/c1ccccc1 : 1.478

Rm recorded for this molecule, CC(NC(=O)/C=C/c1ccccc1)C(=O)NCN1CCCCC1 (racemic) , is 1.758

# Rm of CCC(CO)NC(=O)/C=C/c1ccccc1 (racemic) = 2.093

Rm reported for this molecule CC(C)(CO)NC(=O)/C=C/c1ccccc1 : 2.151

Data point: O=C(/C=C/c1ccccc1)N[C@H]1CCCC[C@@H]1O (racemic) ; Rm = 2.054
